experiment: glucose-independent GLuc insulin release activation – cell-based, INS-1E, Gaussia luciferase, luminescence, cherry-pick, counter-screen for glucose-dependent insulin secretion activators, dose response (AID 977606); conditions: INS-1E Gaussia luciferase insulin secretion, no glucose, 100% = twice neutral-control luminescence; series mostly up to 35 µM
Hit rate of the full screen: of about 1,500 compounds, about 430 (29%) were called active. These entries were drawn from the full list. Potency and affinity values are given separately.
measure_name: outcome

Known outcome results, listed for orientation:
Cc1cc2nc(-c3ccccc3O)[nH]c2cc1C : inactive
O=C(O)c1cccc(N/N=C/c2sc(N3CCOCC3)nc2-c2ccccc2)c1 : inactive
C=C(C)n1c(=O)n(Cc2ccccc2C)c2ccccc21 : inactive
CCCCC(=O)Nc1ccc(C(=O)NNC(=O)c2ccc(C)c(Br)c2)cc1 : inactive
CC(=O)N1CCN(c2nc(-c3cccs3)nc3ccccc23)CC1 : inactive
COc1ccc(CCNS(=O)(=O)c2ccc(Cl)s2)cc1OC : inactive
NC(=O)C1CCN(C(=O)CCNS(=O)(=O)c2ccccc2F)CC1 : inactive
COc1ccc(C(=O)C2CCCN(Cc3cccn3-c3nccs3)C2)cc1OC (centres undefined) : inactive

# batch size: 7; output outcome per entry
1. O=C(O)c1ccc(-n2nc(-c3ccccc3)c3ccccc3c2=O)cc1
2. CCCCOc1ccc(C2=NNC(=O)CC2)cc1
3. COc1ccccc1CNC(=O)CCS(=O)(=O)Cc1ccc(C)cc1
4. Cn1c(N)c(C(c2ccccc2)c2c(N)n(C)c(=O)n(C)c2=O)c(=O)n(C)c1=O
5. c1ccc(CNc2nc(Oc3ccncc3)c3sccc3n2)cc1
6. CCCCCCn1c(-c2cccs2)n[nH]c1=S
7. COc1ccc2oc(C(=O)Nc3nnc(C)s3)c(C)c2c1

inactive
inactive
inactive
inactive
inactive
inactive
inactive

# batch size: 6; output outcome per entry
1. O=C(OC1CCOC1=O)c1cc(-c2ccc(Cl)cc2)nc2ccccc12 (centres undefined)
2. O=C(Nc1ccc(S(=O)(=O)N2CCOCC2)cc1)c1ccc(=O)[nH]c1
3. N#Cc1c(-c2ccco2)cc(C2CC2)nc1N
4. O=C(CCc1nc2ccccc2c(=O)[nH]1)NNC(=O)c1cccc(Cl)c1
5. C[C@@H]1CN([C@H](C)CO)C(=O)c2cc(C3=CCCCC3)cnc2O[C@H]1CN(C)C(=O)CN1CCOCC1
6. Clc1ccc(OCCn2ccnc2)c(Cl)c1

inactive
inactive
inactive
inactive
inactive
inactive

# batch size: 3; output outcome per entry
1. CCC(O)c1nc2ccccc2n1CCc1ccccc1 (centres undefined)
2. CCOc1nc(CC(C)C)c2c(c1C#N)CC(C)(C)OC2
3. C[C@H]1CN=C(N(C)C)N1CC1CCCC1

["inactive", "inactive", "inactive"]

----------
assay: glucose-independent GLuc insulin release activation – cell-based, INS-1E, Gaussia luciferase, luminescence, cherry-pick, counter-screen for glucose-dependent insulin secretion activators, dose response (AID 977606); settings: INS-1E Gaussia luciferase insulin secretion, no glucose, 100% = twice neutral-control luminescence; series mostly up to 35 µM
About 430 (29%) of roughly 1,500 compounds were called active. A selection follows. Potency and affinity values are given separately.
measure_name: outcome

Known outcome results, listed for orientation:
Cc1c(-c2cccc(Cl)c2)nc2ccccc2c1C(=O)NC1CC1 : inactive
Cc1ccccc1Cc1c(C)nc2c(C(=O)NCc3ccco3)cnn2c1C : inactive
CCOc1ncccc1C(=O)Nc1ccccc1F : inactive
O=C1c2cccnc2C(Nc2cccc(F)c2)N1Cc1ccco1 (stereo unspecified) : inactive
COc1ccc(C2=Nn3c(nnc3-c3ccccc3OC)SC2)cc1OC1CCOC1 (stereo unspecified) : inactive

With those in mind, consider the next compound.
Report outcome for "O=C(NCc1ccccc1)c1cccnc1Sc1ccccc1" please.
inactive
